Data provenance: paper PMC5540273

List of %Inh values.
System: YSK4;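 note: KINOMEscan kinase panel screen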
Construct: gene MAP3K19
Conditions: concentration: 1 μM, replicates: in singlicate; n = 1
Give just the numeric value; % need not be written.

1) Cc1nccc(-c2c(-c3ccc(F)cc3)ncn2CCCN2CCOCC2)n1.Cl : 22

**Query** For the compound shown here, COC(=O)c1cccc(NC(=O)NC2CCN(c3ccnc(Nc4ccc(F)cc4)n3)C2)c1 (centres unmarked) , give the reported %Inh.
**Result** 8

**Query** For the compound shown here, `CC(C)c1ccc(O)cc1Nc1ccnc2ccc(C(F)(F)F)cc12` , give the reported %Inh.
**Result** 73

**Query** For the compound shown here, `CNc1nc(-c2ccc3c(N)n[nH]c3c2)cc(N2C[C@@H](C(=O)NC3CCCCC3)OC[C@H]2C)n1` , give the reported %Inh.
**Result** 15

**Query** For the compound shown here, `COc1ccc(Nc2nccc(-c3ccc(NC(=O)c4cc5cc(F)ccc5[nH]4)cc3)n2)cc1` , give the reported %Inh.
**Result** 8

**Query** For the compound shown here, COc1cccc(CNC(=O)NC2CCN(c3ccnc(Nc4ccc(F)cc4)n3)C2)c1 (centres unmarked) , give the reported %Inh.
**Result** 28
